Field log10(Ki): reported value for Nociceptin receptor (Homo sapiens, UniProt P41146); entries drawn from several documents.
The common logarithm of Ki in nM is what is listed.

Use these answered entries as a reference point.
INSERT INTO measurements (compound, result) VALUES
  ('N[C@@H](c1cccc(Cl)c1)[C@@H]1CCN1C(c1ccccc1)c1ccccc1', 1.57),
  ('Cc1ccccc1C1CCN(C[C@@H]2CCc3cccnc3C3(C2)OCCO3)CC1', 1.40),
  ('Cc1ccccc1C1CCN(C[C@@H]2CCc3cccnc3C(C)(O)C2)CC1 (stereo in doubt; form 2)', 1.23),
  ('Cc1ccc([C@H](N)[C@@H]2CCN2C(c2ccccc2)c2ccccc2)cc1F', 1.76),
  ('Clc1ccccc1C(c1ccccc1Cl)N1[C@@H]2CC[C@H]1C[C@@](Cc1ccccc1)(CN1CCCC1)C2', 2.06),
  ('N[C@H](c1cccc(Cl)c1)[C@@H]1CCN1C(c1cccc(C(F)(F)F)c1)c1cccc(C(F)(F)F)c1', 3.41),
  ('Cc1ccccc1[C@@H]1CCN(C[C@@H]2CCc3cccnc3[C@@H](O)C2)C[C@H]1C', 0.54),
  ('COC(=O)C(CCN1CCC(O)(c2ccc(Cl)cc2)CC1)(c1ccccc1)c1ccccc1', 2.77);

## Input Provide the documented log10(Ki) with Nociceptin receptor (Homo sapiens, UniProt P41146) as the system for N[C@@H](c1ccc(Cl)cc1)[C@@H]1CCN1C(c1ccccc1)c1ccccc1
Sequence (P41146 whole entry): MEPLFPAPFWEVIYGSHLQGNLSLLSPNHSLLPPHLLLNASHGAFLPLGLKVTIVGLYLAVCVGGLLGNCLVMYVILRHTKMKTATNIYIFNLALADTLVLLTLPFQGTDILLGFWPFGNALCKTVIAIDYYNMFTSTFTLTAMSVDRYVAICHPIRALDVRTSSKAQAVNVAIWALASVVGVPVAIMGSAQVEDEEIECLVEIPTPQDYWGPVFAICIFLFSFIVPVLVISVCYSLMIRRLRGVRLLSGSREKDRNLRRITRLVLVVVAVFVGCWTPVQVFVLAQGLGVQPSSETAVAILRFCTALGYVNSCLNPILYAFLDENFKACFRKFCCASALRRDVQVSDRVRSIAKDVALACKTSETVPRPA
## Output 2.18

## Input Provide the documented log10(Ki) with Nociceptin receptor (Homo sapiens, UniProt P41146) as the system for Cc1cc(F)ccc1C1CCN(CC2Cc3c(Cl)ccc(O)c3CN2)CC1 (stereo unspecified)
## Output 0.48

## Input Provide the documented log10(Ki) with Nociceptin receptor (Homo sapiens, UniProt P41146) as the system for Cc1ccc(C(c2ccc(C)cc2)N2CC[C@H]2[C@H](N)c2cccc(Cl)c2)cc1
## Output 3.06

## Input Provide the documented log10(Ki) with Nociceptin receptor (Homo sapiens, UniProt P41146) as the system for N[C@@H](c1ccc(Oc2ccccc2)cc1)[C@@H]1CCN1C(c1ccccc1)c1ccccc1
## Output 3.86

## Input Provide the documented log10(Ki) with Nociceptin receptor (Homo sapiens, UniProt P41146) as the system for Cc1ccc2nc(/C=C/c3ccccn3)nc(N[C@H]3CC[C@@H](N)C[C@H]3C)c2c1
## Output 0.30

## Input Provide the documented log10(Ki) with Nociceptin receptor (Homo sapiens, UniProt P41146) as the system for CCCCC(c1cccc(F)c1)N1CC[C@H]1[C@@H](N)c1cccc(Cl)c1 (stereo partly specified)
## Output 2.83

## Input Provide the documented log10(Ki) with Nociceptin receptor (Homo sapiens, UniProt P41146) as the system for CCCCC(CCCC)N1CC[C@H]1[C@@H](N)c1cccc(Cl)c1
## Output 3.13
